src = the RNAGym collection of RNA variant scans (doi:10.1093/nar/gkz1192)

B1: CPEB3 Ribozyme (parent)
chain: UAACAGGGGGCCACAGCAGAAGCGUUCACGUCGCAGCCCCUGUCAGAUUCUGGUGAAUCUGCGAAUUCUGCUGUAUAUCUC

Variants of: B1
Assay: self-cleavage, relative activity (ratio to wild type); higher = more cleavage; in vitro, sequencing
Value kind: self-cleavage
// response body must contain only the number

[in] Consider the variant shown here: G55A U78A What is its recorded self-cleavage?
[out] 1

---
[in] Which self-cleavage reading was recorded for the variant A57G U58A ?
[out] 0.28

[in] Recorded self-cleavage for A35U U51G , please?
[out] 0.47

[in] Would you mind telling me what self-cleavage value was observed for G36C A47C ?
[out] 0.13
